# assay-system: recombinant human β secretase (Homo sapiens, UniProt P56817)
# Construct: made in house; host or cells: COS7 cells transfected with pBACE2; membrane fraction solubilised with octyl-β-glucoside, purified with anti-Flag antibody
# Sequence (P56817 with tags, fused parts or gaps): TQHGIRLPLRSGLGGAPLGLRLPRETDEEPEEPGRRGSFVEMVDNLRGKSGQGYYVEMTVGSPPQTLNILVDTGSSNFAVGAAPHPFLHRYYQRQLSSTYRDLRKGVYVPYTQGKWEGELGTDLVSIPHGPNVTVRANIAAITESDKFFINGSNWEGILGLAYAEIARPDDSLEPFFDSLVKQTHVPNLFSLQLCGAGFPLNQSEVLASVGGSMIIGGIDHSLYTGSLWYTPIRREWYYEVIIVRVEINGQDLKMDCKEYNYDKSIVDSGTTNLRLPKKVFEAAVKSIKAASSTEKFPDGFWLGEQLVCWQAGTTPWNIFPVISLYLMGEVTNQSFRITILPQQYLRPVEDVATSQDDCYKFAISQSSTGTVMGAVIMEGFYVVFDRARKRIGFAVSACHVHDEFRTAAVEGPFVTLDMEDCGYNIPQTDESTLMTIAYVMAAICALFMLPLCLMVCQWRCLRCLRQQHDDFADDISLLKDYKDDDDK
# procedure-details: Measurement of inhibitory activity on β secretase (fluorogenic peptide substrate cleavage)
# Format: biochemical
# condition-set: substrate Nma-Ser-Glu-Val-Asn-Leu-Asp-Ala-Glu-Lys(Dnp)-Arg-Arg-NH2; 0.05 M acetate buffer pH 4.5; 37° C. for 22 hours; fluorescence 325/460
// values below are reported IC50
Output spec: scalar in nM, unitless text.

{"columns": ["compound", "number"],
 "data": [
  ["c1ccc(-c2ccc(COc3ccc4c(c3)CCC(CCN3CCCC3)C4)cc2)cc1 (centres unmarked) [E]", 1120],
  ["CNCCC1CCc2cc(OCc3ccc(-c4ccccc4)cc3)ccc2C1 (centres unmarked) [Compound C]", 1290]
]}

Request: Suppose we examine the compound NCCC1CCc2cc(OCc3ccc(-c4ccccc4)cc3)ccc2C1 (centres unmarked) [I] ; what IC50 value has been reported?
Result: 1050

Request: # query: IC50 of entry Cc1ccc(-c2ccc(COc3ccc4c(c3)CC[C@@H](CCN(C)C)C4)cc2)cc1 [J]
Result: 857

Request: # get_value(readout='IC50', item= C[N+](C)([O-])CCC1CCc2cc(OCc3ccc(-c4ccccc4)cc3)ccc2C1 (centres unmarked) [H] )
Result: 616

Request: Param item = CCN(C)CCC1CCc2cc(OCc3ccc(-c4ccccc4)cc3)ccc2C1 (centres unmarked) [D] ; retrieve measured IC50.
Result: 945

Request: Give the measured IC50 of c1ccc(-c2ccc(COc3ccc4c(c3)CCC(CCn3ccnc3)C4)cc2)cc1 (centres unmarked) [G] .
Result: 856

Request: So what does the record say about IC50 for CN(C)CC[C@@H]1CCc2cc(OCc3ccc(-c4ccccc4)cc3)ccc2C1 [Compound A] ?
Result: 2930
